Molecular target: human A1 AR (Homo sapiens, UniProt P30542)
Sequence (P30542 1-326): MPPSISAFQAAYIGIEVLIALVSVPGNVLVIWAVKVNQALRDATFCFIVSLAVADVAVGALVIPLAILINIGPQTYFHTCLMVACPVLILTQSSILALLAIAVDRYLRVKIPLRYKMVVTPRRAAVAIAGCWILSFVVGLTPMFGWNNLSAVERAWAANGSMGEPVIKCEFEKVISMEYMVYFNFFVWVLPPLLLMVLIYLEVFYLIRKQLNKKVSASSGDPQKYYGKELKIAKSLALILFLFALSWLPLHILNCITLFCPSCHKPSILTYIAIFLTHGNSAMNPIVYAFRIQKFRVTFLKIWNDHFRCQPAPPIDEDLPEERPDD
Assay: Radioligand competition binding (125I-ABA) to human A1 AR in CHO K1 cell membranes
Conditions: selectivity ratio A1 over A2A
Sorting guide: entries reporting A1/A2A beneath 8 go in the class 1 pile, the rest go in the class 0 pile.

Known results for molecules:
CCNC(=O)C1OC(n2cnc3c(N)nc(C#CC4(N)CCCCC4)nc32)C(O)C1O (stereo not shown) [JR-3205]: class 1
CCNC(=O)[C@H]1O[C@@H](n2cnc3c(N)nc(C#CCN4CCC(C(=O)OCC)CC4)nc32)C(O)C1O (stereo in doubt) [JR-3279]: class 1
CCNC(=O)[C@H]1O[C@@H](n2cnc3c(N)nc(C#CCN4CC5CC4CN5C(=O)OC(C)(C)C)nc32)C(O)C1O (stereo in doubt) [JR-4015]: class 1
CCNC(=O)[C@H]1O[C@@H](n2cnc3c(N)nc(C#CCC4CCC(COC(C)=O)CC4)nc32)C(O)C1O (stereo in doubt) [ATL-193]: class 0
CCNC(=O)[C@H]1O[C@@H](n2cnc3c(N)nc(C#CCC4CCC(C(C)O)CC4)nc32)C(O)C1O (stereo in doubt) [JR-3121]: class 0

In: # TODO verify A1/A2A < 8 strictly for this molecule: CCNC(=O)[C@H]1O[C@@H](n2cnc3c(N)nc(C#CCC4CCC(C)(C(=O)OC)CC4)nc32)C(O)C1O (single isomer, unassigned) [JR-3067B]
Out: class 0

In: A1/A2A strictly < 8 for this molecule? CCNC(=O)C1OC(n2cnc3c(N)nc(C#CC(O)C4CCCCC4)nc32)C(O)C1O (single isomer, unassigned) [JR-3159B]
Out: class 1

In: Identify whether the molecule CCNC(=O)[C@H]1O[C@@H](n2cnc3c(N)nc(C#CC4(O)CC(C)(C)CC(C)(C)C4)nc32)C(O)C1O (stereo in doubt) [JR-3163] records A1/A2A below 8.
Out: class 0

In: Lab note: A1/A2A threshold 8. Does this molecule come in strictly under it? CCNC(=O)[C@H]1O[C@@H](n2cnc3c(N)nc(C#CC(O)(C4CCCCC4)C4CCCCC4)nc32)C(O)C1O (stereo in doubt) [JR-3139]
Out: class 1

In: Please indicate whether the reported A1/A2A of CCNC(=O)[C@H]1O[C@@H](n2cnc3c(N)nc(C#CCC4CCN(C(=O)OC(C)(C)C)CC4)nc32)C(O)C1O (stereo in doubt) [JR-3259] is strictly below 8.
Out: class 0

In: Dear reviewer, please state whether CCNC(=O)[C@H]1O[C@@H](n2cnc3c(N)nc(C#CCN4CCN(C(=O)OCC)CC4)nc32)C(O)C1O (stereo in doubt) [JR-3213] has A1/A2A strictly beneath 8.
Out: class 0

In: Does CCNC(=O)[C@H]1O[C@@H](n2cnc3c(N)nc(C#CC4(O)CCC(CC)CC4)nc32)C(O)C1O (stereo in doubt) [JR-3149] have A1/A2A strictly under 8?
Out: class 1

In: Bench note: check whether CCNC(=O)[C@H]1O[C@@H](n2cnc3c(N)nc(C#CC4(O)CCCCNC4=O)nc32)C(O)C1O (single isomer, unassigned) [JR-3243A] shows A1/A2A below 8
Out: class 1

In: Please indicate whether the reported A1/A2A of CCNC(=O)[C@H]1O[C@@H](n2cnc3c(N)nc(C#CC4(O)CCC(C(C)(C)C)CC4)nc32)C(O)C1O (stereo in doubt) [JR-3203] is strictly below 8.
Out: class 0

In: API: query returns whether the molecule falls strictly under 8 in A1/A2A. Query: CCNC(=O)[C@H]1O[C@@H](n2cnc3c(N)nc(C#CC[C@H]4CC[C@H](COC(=O)OC)CC4)nc32)C(O)C1O (stereo partly shown) [ATL214]
Out: class 0

In: # TODO verify A1/A2A < 8 strictly for this molecule: CCNC(=O)[C@H]1O[C@@H](n2cnc3c(N)nc(C#CCC4CCN(C(=O)OC)CC4)nc32)C(O)C1O (stereo in doubt) [JR-4007]
Out: class 0

In: Please let me know if CCNC(=O)[C@H]1O[C@@H](n2cnc3c(N)nc(C#CC4(O)CCCC(C)C4)nc32)C(O)C1O (stereo partly shown) [JR-3179] shows A1/A2A below 8.
Out: class 0

In: Determine if CCNC(=O)[C@H]1O[C@@H](n2cnc3c(N)nc(C#CCC4CCC(C)(C(=O)OC)CC4)nc32)C(O)C1O (single isomer, unassigned) [JR-3067A] shows A1/A2A strictly lower than 8.
Out: class 0

From: patent US7737127B2
